All figures here come from patent US20210236529A1.

Assign RdRp activity, % of Control to each entry below.
target: SARS-CoV-2 RNA Polymerase (RdRp) (Severe acute respiratory syndrome coronavirus 2)
testSummary: SARS-CoV-2 RNA Polymerase (RdRp) Assay Kit, fluorescent enzymatic activity in vitro
Type: biochemical
experimentalConditions: 50 μg test material; vs water control

Output RdRp activity, % of Control of O=C(O)C[C@@H]1C(=O)O[C@H]2[C@@H]3OC(=O)c4cc(O)c(O)c(O)c4-c4c(cc(O)c(O)c4O)C(=O)OC[C@H]2O[C@@H](OC(=O)c2cc(O)c(O)c(O)c2)[C@@H]3OC(=O)c2cc(O)c(O)c3c2[C@H]1[C@H](O)C(=O)O3 [Chebulagic acid]
10 % of Control

Note RdRp activity, % of Control for the compound shown: O=C(OC[C@H]1O[C@@H](OC(=O)c2cc(O)c(O)c(O)c2)[C@H](OC(=O)c2cc(O)c(O)c(O)c2)[C@@H](OC(=O)c2cc(O)c(O)c(O)c2)[C@@H]1OC(=O)c1cc(O)c(O)c(O)c1)c1cc(O)c(O)c(O)c1 [Pentagallolyl glucose, Pentagalloyl glucose]
12 % of Control

Find the measured RdRp activity, % of Control of O=C(O)C[C@H]1C(=O)O[C@H]2[C@H](OC(=O)c3cc(O)c(O)c(O)c3)[C@@H](OC(=O)c3cc(O)c(O)c4c3[C@H]1[C@H](O)C(=O)O4)[C@H](OC(=O)c1cc(O)c(O)c(O)c1)O[C@@H]2COC(=O)c1cc(O)c(O)c(O)c1 [Chebulinic acid] and report it.
14 % of Control

Identify RdRp activity, % of Control associated with the compound O=C(O)C[C@H](C(=O)O)[C@H]1c2c(cc(O)c(O)c2O)C(=O)O[C@@H]1C(=O)O [Chebulic acid, reference compound]
96 % of Control

----------
Would you kindly list RdRp activity, % of Control for each of these compounds?
target: SARS-CoV-2 RNA Polymerase (RdRp) (Severe acute respiratory syndrome coronavirus 2, UniProt P0DTD1)
testSummary: SARS-CoV-2 RNA Polymerase (RdRp) Assay Kit, fluorescent enzymatic activity in vitro
Type: biochemical
experimentalConditions: 10 μg test material; vs water control

Indicate its recorded RdRp activity, % of Control; the compound in question is O=C(O)C[C@H](C(=O)O)[C@H]1c2c(cc(O)c(O)c2O)C(=O)O[C@@H]1C(=O)O [Chebulic acid, reference compound]
105 % of Control

Note RdRp activity, % of Control for the compound shown: O=C(O)C[C@@H]1C(=O)O[C@H]2[C@@H]3OC(=O)c4cc(O)c(O)c(O)c4-c4c(cc(O)c(O)c4O)C(=O)OC[C@H]2O[C@@H](OC(=O)c2cc(O)c(O)c(O)c2)[C@@H]3OC(=O)c2cc(O)c(O)c3c2[C@H]1[C@H](O)C(=O)O3
35 % of Control

Look up RdRp activity, % of Control of O=C(OC[C@H]1O[C@@H](OC(=O)c2cc(O)c(O)c(O)c2)[C@H](OC(=O)c2cc(O)c(O)c(O)c2)[C@@H](OC(=O)c2cc(O)c(O)c(O)c2)[C@@H]1OC(=O)c1cc(O)c(O)c(O)c1)c1cc(O)c(O)c(O)c1 and report it.
32 % of Control

Fill in RdRp activity, % of Control for record O=C(O)C[C@H]1C(=O)O[C@H]2[C@H](OC(=O)c3cc(O)c(O)c(O)c3)[C@@H](OC(=O)c3cc(O)c(O)c4c3[C@H]1[C@H](O)C(=O)O4)[C@H](OC(=O)c1cc(O)c(O)c(O)c1)O[C@@H]2COC(=O)c1cc(O)c(O)c(O)c1
25 % of Control
